Where these numbers come from: patent US20200024348A1

study target: T1, histidine-tagged human SORT1 (R&D Systems) (human, UniProt Q99523 78-755)
T1 construct: Bought recombinant protein; also called His-tagged human SORT1; not shown: histidine tag
T1 sequence: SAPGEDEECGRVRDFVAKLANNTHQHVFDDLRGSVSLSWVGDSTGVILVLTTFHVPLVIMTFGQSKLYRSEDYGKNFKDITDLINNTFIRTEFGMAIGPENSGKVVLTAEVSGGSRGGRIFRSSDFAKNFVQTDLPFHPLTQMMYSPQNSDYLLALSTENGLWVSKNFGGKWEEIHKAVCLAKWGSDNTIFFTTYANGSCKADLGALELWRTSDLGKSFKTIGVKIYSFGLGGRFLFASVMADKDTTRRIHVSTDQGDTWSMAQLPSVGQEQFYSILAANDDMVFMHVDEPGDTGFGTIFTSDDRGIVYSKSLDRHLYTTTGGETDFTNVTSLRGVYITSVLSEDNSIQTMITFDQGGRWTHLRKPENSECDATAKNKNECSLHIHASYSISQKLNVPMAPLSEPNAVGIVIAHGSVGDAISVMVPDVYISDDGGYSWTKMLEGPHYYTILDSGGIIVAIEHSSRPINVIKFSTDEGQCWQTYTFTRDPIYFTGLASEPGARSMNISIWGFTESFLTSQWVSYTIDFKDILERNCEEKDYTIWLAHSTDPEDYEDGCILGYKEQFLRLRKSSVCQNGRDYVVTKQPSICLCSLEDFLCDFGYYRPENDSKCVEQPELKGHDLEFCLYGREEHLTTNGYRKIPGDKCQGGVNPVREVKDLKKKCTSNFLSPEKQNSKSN
experiment notes: BLI (Octet RED96), antibody captured on anti-human IgG Fc sensor, 20 nM His-tagged human SORT1, 1:1 fit

- binder: "S-60-15.7 [N33K] (antibody, human IgG1, kappa, L234A L235A, V domains shown, huIgG1 LALAPS) VH: QVQLQESGPGLVKPSETLSLTCAVSGYSISSGYYWGWIRQPPGKGLEWIGTIYHSGSTYYNPSLKSRVTISVDTSKNQFSLKLSSVTAADTAVYYCARQGSIKQGYYGMDVWGQGTTVTVSS VL: DIVMTQSPLSLPVTPGEPASISCRSSQSLLRSKGYNYLDWYLQKPGQSPQLLIYLGSNRASGVPDRFSGSGSGTDFTLKISRAEAEDVGVYYCMQQQEAPLTFGGGTKVEIKR"
  kon / M⁻¹ s⁻¹: 563000
- binder: "S-60-15.13 [N33I] (antibody, human IgG1, kappa, L234A L235A, V domains shown, huIgG1 LALAPS) VH: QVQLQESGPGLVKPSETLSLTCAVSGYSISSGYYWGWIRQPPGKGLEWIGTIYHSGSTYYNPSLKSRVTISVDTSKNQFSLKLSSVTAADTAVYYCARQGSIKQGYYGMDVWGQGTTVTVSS VL: DIVMTQSPLSLPVTPGEPASISCRSSQSLLRSIGYNYLDWYLQKPGQSPQLLIYLGSNRASGVPDRFSGSGSGTDFTLKISRAEAEDVGVYYCMQQQEAPLTFGGGTKVEIKR"
  kon / M⁻¹ s⁻¹: 491000
- binder: "S-60-15.4 [N33R] (antibody, human IgG1, kappa, L234A L235A, V domains shown, huIgG1 LALAPS) VH: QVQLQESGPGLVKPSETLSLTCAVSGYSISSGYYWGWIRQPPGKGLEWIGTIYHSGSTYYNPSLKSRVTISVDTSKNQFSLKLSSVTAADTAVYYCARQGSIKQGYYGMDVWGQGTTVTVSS VL: DIVMTQSPLSLPVTPGEPASISCRSSQSLLRSRGYNYLDWYLQKPGQSPQLLIYLGSNRASGVPDRFSGSGSGTDFTLKISRAEAEDVGVYYCMQQQEAPLTFGGGTKVEIKR"
  kon / M⁻¹ s⁻¹: 524000
